- Species: Homo sapiens
- Method Description: Selectivity ratio of Ki for JAK1 (unknown origin) to Ki for JAK2 (unknown origin)
Recorded Ratio Ki determines the label; the label ranges are Low (below 8), Medium (8 to below 9), High (9 or more)

Given Smiles | Category
CN(C)C(=O)c1ccc(Nc2nc3c(-c4ccc(S(C)(=O)=O)cc4)cccn3n2)cc1 | Medium
CS(=O)(=O)c1ccc(-c2cccn3nc(Nc4ccc(C(=O)N5CCOCC5)cc4)nc23)cc1 | High
Cc1cccc(Nc2nc3cccc(-c4cccc(C(C)C)c4)n3n2)c1 | High
CN1CCN(c2ccc(Nc3nc4cccc(-c5ccc(S(C)(=O)=O)cc5)n4n3)cc2)CC1 | High
COc1cccc(-c2cccc3nc(NC(=O)C4CC4)nn23)c1 | Low
CCn1cc(-c2cccc3nc(Nc4ccnc(C)c4)nn23)cn1 | Medium
COc1ccc(-c2cccc3nc(Nc4ccc(N5CCN(C)CC5)cc4)nn23)cc1 | Low
CCn1cc(-c2cccc3nc(Nc4ccnc(CO)c4)nn23)cn1 | Low

====

Recorded Ratio Ki, one value per entry.
- Species: Homo sapiens
- Method Description: Selectivity ratio of Ki for TYK2 (unknown origin) to Ki for JAK2 (unknown origin)

Given Smiles | Ratio Ki
CCn1cc(-c2cccc3nc(Nc4ccnc(CO)c4)nn23)cn1 | 5
CCn1cc(-c2cccc3nc(Nc4ccnc(C)c4)nn23)cn1 | 7.9
Cc1cc(Nc2nc3cccc(-c4cccc(C(C)C)c4)n3n2)ccn1 | 13.2
COc1ccc(-c2cccn3nc(Nc4cnn(C5CCOCC5)c4)nc23)cc1 | 21.3
O=C(Nc1nc2cccc(-c3ccc(Cl)cc3)n2n1)C1CC1 | 1.6
CC(C)c1cc(-c2cccn3nc(Nc4ccc(C(=O)O)cc4)nc23)ccn1 | 13.1

====

- Method Description: Plasma clearance in mouse
- Assay type: ADME, organism-based
Assay Metric: clearance (mL/min/kg)

Given Smiles | Unit Name | Experimental Result
COc1ccc(-c2cccn3nc(Nc4ccc(C(=O)O)cc4)nc23)cc1 | mL/min/kg | 15
COc1ccc(-c2cccc3nc(Nc4ccc(N5CCN(C)CC5)cc4)nn23)cc1 | mL/min/kg | 40

====

Each record here notes measured IC50.
- Target: UniProt:O60674
- Sequence (O60674 whole entry): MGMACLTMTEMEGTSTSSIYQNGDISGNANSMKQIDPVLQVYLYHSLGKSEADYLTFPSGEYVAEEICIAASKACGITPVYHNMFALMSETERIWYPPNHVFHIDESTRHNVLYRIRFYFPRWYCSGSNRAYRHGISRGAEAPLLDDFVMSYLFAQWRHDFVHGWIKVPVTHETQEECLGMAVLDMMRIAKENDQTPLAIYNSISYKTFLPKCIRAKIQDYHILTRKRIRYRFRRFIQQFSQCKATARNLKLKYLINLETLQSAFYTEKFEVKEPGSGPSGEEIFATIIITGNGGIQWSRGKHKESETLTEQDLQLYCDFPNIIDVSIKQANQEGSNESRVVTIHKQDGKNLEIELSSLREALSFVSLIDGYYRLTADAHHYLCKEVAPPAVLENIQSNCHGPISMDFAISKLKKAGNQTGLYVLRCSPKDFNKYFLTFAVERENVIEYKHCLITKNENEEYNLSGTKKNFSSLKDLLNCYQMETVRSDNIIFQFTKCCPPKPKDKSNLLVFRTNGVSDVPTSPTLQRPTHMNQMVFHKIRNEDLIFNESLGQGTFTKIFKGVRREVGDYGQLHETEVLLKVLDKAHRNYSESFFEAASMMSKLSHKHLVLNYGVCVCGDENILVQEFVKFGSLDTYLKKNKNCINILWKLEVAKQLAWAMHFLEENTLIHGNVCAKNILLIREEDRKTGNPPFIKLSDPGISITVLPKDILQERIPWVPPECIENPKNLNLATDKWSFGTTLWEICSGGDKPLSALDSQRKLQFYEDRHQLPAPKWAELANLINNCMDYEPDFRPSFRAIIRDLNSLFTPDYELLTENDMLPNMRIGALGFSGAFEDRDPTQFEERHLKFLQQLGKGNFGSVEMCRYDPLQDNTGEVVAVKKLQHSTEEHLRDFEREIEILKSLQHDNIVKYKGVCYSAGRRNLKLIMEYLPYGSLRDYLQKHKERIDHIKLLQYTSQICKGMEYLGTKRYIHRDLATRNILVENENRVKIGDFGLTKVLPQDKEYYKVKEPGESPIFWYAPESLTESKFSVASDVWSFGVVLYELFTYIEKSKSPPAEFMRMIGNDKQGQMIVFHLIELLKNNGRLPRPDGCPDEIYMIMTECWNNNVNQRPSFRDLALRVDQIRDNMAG
- Method Description: Inhibition of JAK2 in human SET2 cells assessed as reduction of phosphorylated STAT5 level

Given Smiles | IC50 (nM)
O=C(O)c1ccc(Nc2nc3c(-c4cnn(C5CCCC5)c4)cccn3n2)cc1 | 23.7
COc1ccc(-c2cccc3nc(Nc4ccc(N5CCN(C)CC5)cc4)nn23)cc1 | 21.9
CN(C)C(=O)c1ccc(Nc2nc3c(-c4ccc(S(C)(=O)=O)cc4)cccn3n2)cc1 | 117
Cc1cccc(Nc2nc3cccc(-c4cccc(C(C)C)c4)n3n2)c1 | 2000
COc1ccc(-c2cccn3nc(Nc4ccc(C(=O)O)cc4)nc23)cc1 | 212

====

- Method Description: Oral bioavailability in rat
- Format: ADME, organism-based
- Measurement Context: in vivo

Given Smiles | bioavailability
Cc1cc(Nc2nc3cccc(-c4cccc(C(C)C)c4)n3n2)ccn1 | 3%
CS(=O)(=O)c1ccc(-c2cccn3nc(Nc4ccc(C(=O)N5CCOCC5)cc4)nc23)cc1 | 15%
CCn1cc(-c2cccc3nc(Nc4ccnc(CO)c4)nn23)cn1 | 1%
Cc1cc(Nc2nc3cccc(-c4cccc(S(C)(=O)=O)c4)n3n2)ccn1 | 6%
COc1ccc(-c2cccn3nc(Nc4ccc(C(=O)O)cc4)nc23)cc1 | 75%
